For each entry below, report its pIC50 value.
target: Cholinesterase (Equus caballus, UniProt P81908); experiment: Inhibition of equine serum BuChE using butylthiocholine iodine as substrate preincubated for 20 mins followed by substrate addition and measured after 20 mins by DTNB reagent based Ellman's method
Sequence (P81908 whole entry): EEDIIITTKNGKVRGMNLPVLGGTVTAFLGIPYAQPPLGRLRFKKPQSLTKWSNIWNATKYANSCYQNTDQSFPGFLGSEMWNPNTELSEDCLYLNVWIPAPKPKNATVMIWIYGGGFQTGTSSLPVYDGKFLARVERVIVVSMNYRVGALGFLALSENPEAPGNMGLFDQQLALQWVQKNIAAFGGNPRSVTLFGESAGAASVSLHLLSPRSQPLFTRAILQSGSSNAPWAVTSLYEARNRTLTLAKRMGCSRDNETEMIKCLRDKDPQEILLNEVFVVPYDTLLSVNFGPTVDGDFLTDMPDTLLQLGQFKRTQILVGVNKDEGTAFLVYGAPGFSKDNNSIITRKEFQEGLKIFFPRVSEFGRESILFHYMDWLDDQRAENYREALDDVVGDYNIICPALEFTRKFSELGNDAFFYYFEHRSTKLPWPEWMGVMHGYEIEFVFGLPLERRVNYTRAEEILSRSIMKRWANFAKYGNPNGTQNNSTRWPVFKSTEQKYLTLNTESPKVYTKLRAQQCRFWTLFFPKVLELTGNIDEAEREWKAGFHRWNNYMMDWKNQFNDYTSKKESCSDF
Quick note: pIC50 values are minus log10 of concentrations in mol/L.

Exercise: Query (compound): `O=c1cc(OCCCN2CCC(CNCc3ccccc3F)CC2)c2ccc(-c3cccnc3)cc2o1` ; field requested: pIC50
Key: 4.51

Exercise: Query `O=c1cc(OCCCN2CCC(NCc3cccc(F)c3)CC2)c2ccc(-c3cccnc3)cc2o1` next
Key: 4.55

Exercise: Query `O=c1cc(OCCCN2CCC(NCc3ccccc3)CC2)c2ccc(-c3cccnc3)cc2o1` next
Key: 4.67

Exercise: Query `Cc1cccc(CNC2CCN(CCCOc3cc(=O)oc4cc(-c5cccnc5)ccc34)CC2)c1` next
Key: 4.73

Where these numbers come from: ChEMBL document CHEMBL5352400
